# tested-target: CC200 variant of CD117 (S261G) purified protein (human, UniProt P10721 26-520, limits assumed)
# Sequence (P10721 26-520 S261G limits assumed): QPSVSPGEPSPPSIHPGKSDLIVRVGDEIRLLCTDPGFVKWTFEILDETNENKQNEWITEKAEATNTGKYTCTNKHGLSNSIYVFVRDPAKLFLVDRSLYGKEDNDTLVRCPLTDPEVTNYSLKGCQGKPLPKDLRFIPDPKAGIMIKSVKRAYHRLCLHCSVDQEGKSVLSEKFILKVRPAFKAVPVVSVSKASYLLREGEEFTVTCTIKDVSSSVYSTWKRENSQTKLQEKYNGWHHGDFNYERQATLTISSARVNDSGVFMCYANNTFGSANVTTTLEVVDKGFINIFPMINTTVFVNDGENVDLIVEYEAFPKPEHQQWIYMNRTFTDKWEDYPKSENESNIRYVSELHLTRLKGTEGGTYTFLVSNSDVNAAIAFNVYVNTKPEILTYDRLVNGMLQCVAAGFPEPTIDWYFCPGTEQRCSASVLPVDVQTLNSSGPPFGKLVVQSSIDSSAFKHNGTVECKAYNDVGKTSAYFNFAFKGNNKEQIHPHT
# experiment-summary: binding kinetics grade, FIGS. 55A-55C
reported-endpoint: binding result

ABTx256 (antibody, human IgG1, kappa, V domains shown) VH: QVQLVQSGAAVKKPGESLKISCKGSGYRFTSYWIGWVRQMPGKGLEWMGIIYPGDSDTRYSPSFQGQVTISAGKSISTAYLQWSSLKASDTAMYYCARHGRGYDAYEGAFDIWGQGTMVTVSS VL: AIQLTQSPSSLSASVGDRVTITCRASQGISSALAWYQQKPGKAPKLLIYDASSLESGVPSRFSGSGSGTDFTLTISSLQPEDFATYYCQQTYSYPLTFGGGTKVEIKR :: no binding
ABTx265 (antibody, human IgG1, kappa, V domains shown) VH: QVQLVQSGAAVKKPGESLKISCKGSGYRFTSYWIGWVRQMPGKGLEWMGIIYPGDSDTKYSPSFQGQVTISAGKSISTAYLQWSSLKASDTAMYYCARHGRGYDGYDGAFDIWGQGTMVTVSS VL: AIQLTQSPSSLSASVGDRVTITCRASQGISSALAWYQQKPGKAPKLLIYDASSLESGVPSRFSGSGSGTDFTLTISSLQPEDFATYYCQQTRSYPLTFGGGTKVEIKR :: no binding
ABTx262 (antibody, human IgG1, kappa, V domains shown) VH: QVQLVQSGAAVKKPGESLKISCKGSGYRFTSYWIGWVRQMPGKGLEWMGIIYPGDSDTRYSPSFQGQVTISAGKSISTAYLQWSSLKASDTAMYYCARHGRGYDAYEGAFDIWGQGTMVTVSS VL: AIQLTQSPSSLSASVGDRVTITCRASQGISSALAWYQQKPGKAPKLLIYDASSLESGVPSRFSGSGSGTDFTLTISSLQPEDFATYYCQQFRSSPLTFGGGTKVEIKR :: no binding
